assayed_target: pooled human IgG (human IgG1, 2, 3 and 4)
measured_parameter: Enzyme Activity Endpoint Assay: Fab′2

1. PRT-587 (protein) MANQEIRYSEETPKTITSVWTKGVTPPTDFIYNEDVLHAPYIANQGWYDITKTFNGKDDLLCGAATAGNMLHWWFDQNKEQIERYLKKHPEKQKINFNGEQMFDVKEAIDTKDSQTDSKLFEYFKDKAFPYLSTKHLGVFPDHVIDMFINGYRLSLTNHGPTPVKRGTKDPRGGIFDAVFTRGDQSKLLTSRHDFKEKTLNEISDLIKQELTEGKALGLSHTYANVRINHVINLWGADFNSEGNLEAIYVTDSDSNASIGMKKYYVGVNSAGKVAISAKEIEGDNIGAQVLGLFTLSTGKDIWEQTNLEHHHHHH = 347 ng/µL
